# target.or.test.system: recombinant human CYP17 enzyme (Homo sapiens (Human))
# Sequence (P05093 whole entry): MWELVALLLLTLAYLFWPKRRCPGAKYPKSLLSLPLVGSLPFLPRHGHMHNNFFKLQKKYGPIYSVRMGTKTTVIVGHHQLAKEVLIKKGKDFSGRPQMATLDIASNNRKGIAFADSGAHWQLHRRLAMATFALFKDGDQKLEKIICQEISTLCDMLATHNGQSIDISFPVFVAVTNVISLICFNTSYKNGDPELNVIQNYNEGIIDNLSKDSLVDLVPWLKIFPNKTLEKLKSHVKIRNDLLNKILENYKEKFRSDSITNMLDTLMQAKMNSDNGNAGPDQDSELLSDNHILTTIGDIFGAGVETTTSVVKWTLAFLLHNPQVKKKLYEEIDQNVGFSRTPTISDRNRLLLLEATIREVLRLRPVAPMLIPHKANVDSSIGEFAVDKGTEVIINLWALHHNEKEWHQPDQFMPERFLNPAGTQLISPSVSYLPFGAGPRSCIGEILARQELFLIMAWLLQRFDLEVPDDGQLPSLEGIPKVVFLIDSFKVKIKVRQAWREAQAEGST
# test.name: Cytochrome P450, 17-20 lyase (CYP17-lyase) assay, tritiated acetic acid release from 17-α-hydroxy pregnenolone [21-3H]
# Type: biochemical
# measurement.parameters: human CYP17, substrate 0.25 μM; read-out: Lyase IC 50 nM Human/Rat (Human)
readout.kind: IC50 (nM)
Respond numerically; units are nM and should not be typed.

A selection of reference data follows.
compound: COc1ccncc1N1CCN(c2ccc3ncsc3c2)C1=O [Example 124A]
units: nM
IC50: 23
//
compound: Cc1ccncc1N1CCN(c2ccc3[nH][nH]c(=O)c3c2)C1=O [Example 117A]
units: nM
IC50: 94
//
compound: Cc1cccc(N2CCN(c3cnccc3C)C2=O)c1 [Example 55A]
units: nM
IC50: 9
//
compound: CC(=O)Nc1ccncc1N1CCN(c2ccc3ncsc3c2)C1=O [Example 150A]
units: nM
IC50: 496
//
compound: O=C1N(c2ccc3ncsc3c2)CCN1c1cnccc1CNC1CC1 [Example 178A]
units: nM
IC50: 19

query: Report IC50 on recombinant human CYP17 enzyme (Homo sapiens (Human)) for this entry: Cc1ccncc1N1CCN(c2ccnc(Cl)c2)C1=O [Example 58A]
result: 27

query: Give reported IC50 for Cc1ccncc1N1C(=O)N(c2ccc3ncsc3c2)CC1C (centres unmarked) [Example 167A] (recombinant human CYP17 enzyme (Homo sapiens (Human)))
result: 38

query: Tell me IC50 of CCc1cn(-c2ccc3ncsc3c2)c(=O)n1-c1cnccc1C [Example 168A] when tested on recombinant human CYP17 enzyme (Homo sapiens (Human)).
result: 384

query: Give IC50 only, for COc1cc(N2CCN(c3cnccc3C)C2=O)ccn1 [Example 72A] , using recombinant human CYP17 enzyme (Homo sapiens (Human)) data.
result: 9.4

query: Report IC50 from recombinant human CYP17 enzyme (Homo sapiens (Human)) testing of Cc1ccncc1N1CCN(c2cc3c(C)nccc3s2)C1=O [Example 194A]
result: 21

query: Please report the measured IC50 for Cc1ccncc1N1CCN(c2csc3ccncc23)C1=O [Example 136A] tested on recombinant human CYP17 enzyme (Homo sapiens (Human)).
result: 500

query: Using recombinant human CYP17 enzyme (Homo sapiens (Human)) as the test system, report measured IC50 of CCc1ccncc1N1CCN(c2ccc3ncsc3c2)C1=O [Example 159A] .
result: 3.4

query: Using recombinant human CYP17 enzyme (Homo sapiens (Human)) as the test system, report measured IC50 of Cc1ccncc1N1CCN(c2csc(C(F)F)c2)C1=O [Example 78A] .
result: 9.3
